molecular target: rat albumin (Rattus norvegicus, UniProt P02770); experiment: Solution Binding ELISA, AB.Fab variants with soluble rat albumin; parameters: purchased Sigma; conditions: Rat albumin, as listed in Table 15; read-out: Kd for Albumin
Sequence (P02770 25-608): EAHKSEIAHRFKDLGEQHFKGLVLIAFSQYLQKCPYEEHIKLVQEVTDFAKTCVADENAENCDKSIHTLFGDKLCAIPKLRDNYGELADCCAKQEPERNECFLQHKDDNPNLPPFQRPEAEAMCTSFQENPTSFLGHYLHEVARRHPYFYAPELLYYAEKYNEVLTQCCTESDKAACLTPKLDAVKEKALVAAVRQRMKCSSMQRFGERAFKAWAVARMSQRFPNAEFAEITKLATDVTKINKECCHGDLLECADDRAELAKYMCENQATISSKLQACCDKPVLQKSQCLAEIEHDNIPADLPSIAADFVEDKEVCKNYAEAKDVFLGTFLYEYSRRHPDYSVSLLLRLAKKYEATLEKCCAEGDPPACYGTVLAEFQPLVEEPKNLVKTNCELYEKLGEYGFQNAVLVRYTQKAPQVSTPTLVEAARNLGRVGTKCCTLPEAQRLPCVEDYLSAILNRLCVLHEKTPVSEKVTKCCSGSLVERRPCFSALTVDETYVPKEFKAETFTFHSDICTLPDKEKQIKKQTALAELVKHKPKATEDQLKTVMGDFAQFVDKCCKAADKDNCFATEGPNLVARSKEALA
Bridges are numbered along the chain shown (N, C = ends). Where no end group is shown, it is not given here.
Property: Kd (nM)
Give just the number in nM; leave the unit off.

Query block: I am curious: what Kd value has been reported for AB.Fab 4D5-H11 (DICLPRWGCL; disulfide 3-9 (inferred); also: part of Fab heavy chain) ?
Result block: 2500

---

Reported CL by item:
assay: Pharmacokinetics of AB.Fab variants in rabbits (HER2 Binding ELISA); format: in vivo; conditions: Rabbit; group mean
Bridges are numbered along the chain shown (N, C = ends). Where no end group is shown, it is not given here.
Give just the number in mL/min/kg; leave the unit off.

Below, each entry is followed by its recorded CL result.
>  <Substance>
AB.Fab 4D5-H10 (DICLPRWGCLW; disulfide 3-9 (inferred); also: part of Fab heavy chain)

>  <CL (mL/min/kg)>
0.225

$$$$
>  <Substance>
AB.Fab 4D5-H4 (DICLPRWGCLWED; disulfide 3-9 (inferred); also: part of Fab heavy chain)

>  <CL (mL/min/kg)>
0.0597

$$$$
>  <Substance>
AB.Fab 4D5-H11 (DICLPRWGCL; disulfide 3-9 (inferred); also: part of Fab heavy chain)

>  <CL (mL/min/kg)>
0.343

$$$$

Now consider a different substance.
Query block: I am curious: what CL value has been reported for AB.Fab 4D5-H8 (IEDICLPRWGCLWE; disulfide 5-11 (inferred); also: part of Fab heavy chain) ?
Result block: 0.0332

---

molecular target: mouse albumin (Mus musculus, UniProt P07724); construct: purchased Sigma; experiment: Direct Binding ELISA, AB.Fab variants on immobilized mouse albumin; conditions: average and SD of at least 3 determinations
Sequence (P07724 25-608): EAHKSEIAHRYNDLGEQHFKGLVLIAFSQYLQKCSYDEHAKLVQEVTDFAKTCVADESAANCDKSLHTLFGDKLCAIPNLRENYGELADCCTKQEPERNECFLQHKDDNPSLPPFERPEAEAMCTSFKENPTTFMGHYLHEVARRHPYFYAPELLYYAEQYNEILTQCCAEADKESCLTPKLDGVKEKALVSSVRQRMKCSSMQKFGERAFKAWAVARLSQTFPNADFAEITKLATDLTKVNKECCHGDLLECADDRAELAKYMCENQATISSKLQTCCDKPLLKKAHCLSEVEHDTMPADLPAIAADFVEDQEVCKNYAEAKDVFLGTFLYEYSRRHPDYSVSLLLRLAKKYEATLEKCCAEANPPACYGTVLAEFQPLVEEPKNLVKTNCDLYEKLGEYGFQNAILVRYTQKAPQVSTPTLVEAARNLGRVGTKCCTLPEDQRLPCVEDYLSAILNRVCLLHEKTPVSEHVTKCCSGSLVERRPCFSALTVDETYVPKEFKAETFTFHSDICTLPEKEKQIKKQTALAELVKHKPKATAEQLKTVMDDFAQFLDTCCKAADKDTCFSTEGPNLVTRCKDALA
Bridges are numbered along the chain shown (N, C = ends). Where no end group is shown, it is not given here.
Property: EC50

Query block: I am curious: what EC50 value has been reported for 4D5-H11: AB.Fab variant made by deletion in 4D5-H4 (Table 12) (DICLPRWGCL; disulfide 3-9 (inferred); also: part of Fab heavy chain) ?
Result block: > 2 µM

---

Reported t1/2β by item:
Test: Pharmacokinetics of AB.Fab variants in rabbits (HER2 Binding ELISA)
Type: in vivo
Conditions: Rabbit; group mean
Method: All pharmacokinetic (PK) studies were conducted according to protocols approved by the Institutional Animal Care and Use Committee at Genentech, Inc. Sprague Dawley rats were supplied by Charles River Laboratories (Hollister, Calif. USA). New Zealand White (NWZ) rabbits were supplied by Myrtle's Rabbitry (Thompson Station, Tenn. USA). BALB-c mice were supplied by Charles River (Hollister, Calif. USA). […]
Bridges are numbered along the chain shown (N, C = ends). Where no end group is shown, it is not given here.
Give just the number in h; leave the unit off.

Below, each entry is followed by its recorded t1/2β result.
>  <Substance>
AB.Fab 4D5-H11 (DICLPRWGCL; disulfide 3-9 (inferred); also: part of Fab heavy chain)

>  <Property>
t1/2β

>  <Readout Value>
11.9

$$$$
>  <Substance>
AB.Fab 4D5-H8 (IEDICLPRWGCLWE; disulfide 5-11 (inferred); also: part of Fab heavy chain)

>  <Property>
t1/2β

>  <Readout Value>
36.2

$$$$
>  <Substance>
AB.Fab 4D5-H4 (DICLPRWGCLWED; disulfide 3-9 (inferred); also: part of Fab heavy chain)

>  <Property>
t1/2β

>  <Readout Value>
28.3

$$$$

Now consider a different substance.
Query block: I am curious: what t1/2β value has been reported for AB.Fab 4D5-H10 (DICLPRWGCLW; disulfide 3-9 (inferred); also: part of Fab heavy chain) ?
Result block: 12.0

---

test: Pharmacokinetics of AB.Fab variants in rabbits (HER2 Binding ELISA); assay type: in vivo; details: Rabbit; group mean
Bridges are numbered along the chain shown (N, C = ends). Where no end group is shown, it is not given here.
Property: V1 (L/kg)
Give just the number in L/kg; leave the unit off.

Below, each entry is followed by its recorded V1 result.
>  <Substance>
AB.Fab 4D5-H8 (IEDICLPRWGCLWE; disulfide 5-11 (inferred); also: part of Fab heavy chain)

>  <Result Unit>
L/kg

>  <V1>
0.0296

$$$$
>  <Substance>
AB.Fab 4D5-H4 (DICLPRWGCLWED; disulfide 3-9 (inferred); also: part of Fab heavy chain)

>  <Result Unit>
L/kg

>  <V1>
0.0305

$$$$
>  <Substance>
AB.Fab 4D5-H10 (DICLPRWGCLW; disulfide 3-9 (inferred); also: part of Fab heavy chain)

>  <Result Unit>
L/kg

>  <V1>
0.0368

$$$$

Now consider a different substance.
Query block: I am curious: what V1 value has been reported for AB.Fab 4D5-H11 (DICLPRWGCL; disulfide 3-9 (inferred); also: part of Fab heavy chain) ?
Result block: 0.0404

---

Reported V1 by item:
experiment: Pharmacokinetics of AB.Fab variants in rats (HER2 Binding ELISA); format: in vivo; settings: Rat; group mean
Bridges are numbered along the chain shown (N, C = ends). Where no end group is shown, it is not given here.

>  <Substance>
AB.Fab 4D5-H10 (DICLPRWGCLW; disulfide 3-9 (inferred); also: part of Fab heavy chain)

>  <V1>
0.0446 ± 0.00204 L/kg

$$$$
>  <Substance>
AB.Fab 4D5-H11 (DICLPRWGCL; disulfide 3-9 (inferred); also: part of Fab heavy chain)

>  <V1>
0.0487 ± 0.00225 L/kg

$$$$
>  <Substance>
AB.Fab 4D5-H8 (IEDICLPRWGCLWE; disulfide 5-11 (inferred); also: part of Fab heavy chain)

>  <V1>
0.0458 ± 0.00811 L/kg

$$$$

Now consider a different substance.
Query block: I am curious: what V1 value has been reported for AB.Fab 4D5-H4 (DICLPRWGCLWED; disulfide 3-9 (inferred); also: part of Fab heavy chain) ?
Result block: 0.0522 ± 0.00421 L/kg

---

Test: Pharmacokinetics of AB.Fab variants in rats (HER2 Binding ELISA)
Assay type: in vivo
Details: Rat; group mean
Experimental: All pharmacokinetic (PK) studies were conducted according to protocols approved by the Institutional Animal Care and Use Committee at Genentech, Inc. Sprague Dawley rats were supplied by Charles River Laboratories (Hollister, Calif. USA). New Zealand White (NWZ) rabbits were supplied by Myrtle's Rabbitry (Thompson Station, Tenn. USA). BALB-c mice were supplied by Charles River (Hollister, Calif. USA). […]
Bridges are numbered along the chain shown (N, C = ends). Where no end group is shown, it is not given here.
Reported t1/2β by item:
Give just the number in h; leave the unit off.

Below, each entry is followed by its recorded t1/2β result.
>  <Substance>
AB.Fab 4D5-H4 (DICLPRWGCLWED; disulfide 3-9 (inferred); also: part of Fab heavy chain)

>  <t1/2β (h)>
20.7

$$$$
>  <Substance>
AB.Fab 4D5-H10 (DICLPRWGCLW; disulfide 3-9 (inferred); also: part of Fab heavy chain)

>  <t1/2β (h)>
10.9

$$$$
>  <Substance>
AB.Fab 4D5-H11 (DICLPRWGCL; disulfide 3-9 (inferred); also: part of Fab heavy chain)

>  <t1/2β (h)>
4.21

$$$$

Now consider a different substance.
Query block: I am curious: what t1/2β value has been reported for AB.Fab 4D5-H8 (IEDICLPRWGCLWE; disulfide 5-11 (inferred); also: part of Fab heavy chain) ?
Result block: 28.0

---

Reported Vss by item:
experiment: Pharmacokinetics of AB.Fab variants in rats (HER2 Binding ELISA); assay type: in vivo; conditions: Rat; group mean
Bridges are numbered along the chain shown (N, C = ends). Where no end group is shown, it is not given here.
Give just the number in L/kg; leave the unit off.

Below, each entry is followed by its recorded Vss result.
>  <Substance>
AB.Fab 4D5-H11 (DICLPRWGCL; disulfide 3-9 (inferred); also: part of Fab heavy chain)

>  <Readout Value>
0.0816

$$$$
>  <Substance>
AB.Fab 4D5-H8 (IEDICLPRWGCLWE; disulfide 5-11 (inferred); also: part of Fab heavy chain)

>  <Readout Value>
0.0859

$$$$
>  <Substance>
AB.Fab 4D5-H4 (DICLPRWGCLWED; disulfide 3-9 (inferred); also: part of Fab heavy chain)

>  <Readout Value>
0.076

$$$$

Query block: I am curious: what Vss value has been reported for AB.Fab 4D5-H10 (DICLPRWGCLW; disulfide 3-9 (inferred); also: part of Fab heavy chain) ?
Result block: 0.0753
